Recorded values, source PubChem BioAssay.

Biological target: Protein kinase 7 (PK7), Plasmodium falciparum 3D7 (PF3D7_0213400) (UniProt Q7YTF7)
Sequence (Q7YTF7 1-343): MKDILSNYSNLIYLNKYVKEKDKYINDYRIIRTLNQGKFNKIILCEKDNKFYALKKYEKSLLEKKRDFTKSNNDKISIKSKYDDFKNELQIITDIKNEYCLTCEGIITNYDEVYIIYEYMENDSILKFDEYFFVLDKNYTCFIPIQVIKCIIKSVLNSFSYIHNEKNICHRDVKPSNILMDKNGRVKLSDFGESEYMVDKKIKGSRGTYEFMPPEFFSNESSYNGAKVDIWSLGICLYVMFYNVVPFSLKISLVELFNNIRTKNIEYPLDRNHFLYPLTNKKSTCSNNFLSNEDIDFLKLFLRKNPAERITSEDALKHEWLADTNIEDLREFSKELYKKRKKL
Assay: inhibition of Plasmodium PK7 catalytic activity – biochemical, TCAMS antimalarial set, Kinase-Glo luminescence (AID 1159587)
Conditions: recombinant PfPK7, Kinase-Glo ATP depletion luminescence
Activity calls are given as the source filed them. The rule behind the calls is not given here.
readout name: outcome

[in] Param item = COc1ccccc1CNc1ncc(-c2ccsc2)c(-c2nccs2)n1 ; retrieve measured outcome.
[out] inactive

[in] And Cc1ccc(S(=O)(=O)N(CCCN2CCN(C)CC2)Cc2csc(-c3ccc(CNCc4ccccc4)cc3)n2)cc1 ?
[out] inactive

[in] And Cc1ccc(O)c(CN2CCCC(COC(c3ccc(F)cc3)c3ccc(F)cc3)C2)c1 (stereo not drawn) ?
[out] inactive

[in] And CN1CCCN(Cc2ccc(-c3ccc(NC(=O)c4cccc(C#N)c4)cc3)cc2)CC1 ?
[out] inactive

[in] And Cc1cc(-c2ccc3c(c2)CCN(CCC2CCC(NC(=O)/C=C/c4cccc(Cl)c4)CC2)CC3)on1 (stereo not drawn) ?
[out] inactive

[in] And Cc1cccc2[nH]c(-c3ccc(-c4cccc(CN5CC(C)OC(C)C5)c4)s3)nc12 (stereo not drawn) ?
[out] inactive

For every listed record, write down its outcome.
1. COc1cc(Nc2ccnc3cc(-c4nccs4)ccc23)ccc1OCCCc1nc2ccccc2[nH]1
2. COc1cccc2cc(C(=O)N[C@@H](CC(C)C)C(=O)N[C@H](/C=N/NC(=O)c3ccccc3)Cc3cnc[nH]3)oc12

[out]
["inactive", "inactive"]

For every listed record, write down its outcome.
1. COC(=O)c1cccc(CNCc2ccc(-c3cccc(-c4nc5c(C)cccc5[nH]4)c3)cc2)c1
2. O=C(CCc1ccccc1)N[C@H](Cc1c[nH]c2ccccc12)C(=O)N1CCC(NCc2ccc3c(c2)Cc2ccccc2-3)CC1
3. O=S(=O)(c1cccc(C(F)(F)F)c1)N1CCC(CO)(Cc2cccc(C(F)(F)F)c2)CC1
4. CC(C)COc1ccc(Cl)cc1Cc1nc(-c2nc3ccc(CN(C)C)cc3[nH]2)co1
5. Cc1cnc(NCCc2ccc(F)cc2)nc1NCCC(=O)Nc1ccccc1

[out]
["inactive", "inactive", "inactive", "inactive", "inactive"]

For every listed record, write down its outcome.
1. Cc1ccccc1C1CCN(C2CCC(NC(=O)c3ccc(-c4ccccc4F)o3)CC2)CC1 (stereo not drawn)
2. CCc1c[nH]c2c(N3CCCC3=O)cc(C(=O)N[C@@H](Cc3ccccc3)[C@H](O)CNC(C)(C)c3cccc(C(F)(F)F)c3)cc12
3. CN(C)c1ccc(OCCCCCCOc2ccccc2)cc1
4. C#CC[C@@H](NC(N)=O)C(=O)O

[out]
inactive
inactive
inactive
inactive

For every listed record, write down its outcome.
1. Nn1c(=O)oc2ccc(Cl)cc2c1=O
2. COc1ccc(C2CCN(CCCCNC(=O)c3ccc(NC(=O)c4ccc(Cl)cc4)cc3)CC2)c(C)c1
3. COc1ccc2nccc([C@@H](O)CN3CCC(NC(=O)Cc4cc5ccccc5s4)CC3)c2c1
4. CC(C)N1CCC(Oc2ccc(CN3CCN(C(c4ccccc4)c4ccc(Cl)cc4)CC3)cc2)CC1 (stereo not drawn)
5. NC1=NC(c2ccccc2)(c2ccccc2)C(=O)N1Cc1ccc(-c2ccncc2)cc1
6. Cc1ccc(OCCCON2C(N)=NC(N)=NC2(C)C)cc1C
7. O=C(Nc1ccc(-c2cccc(-c3nc4ccc(F)cc4[nH]3)c2)cc1)Nc1ccsc1
8. O=C1CCCN1CCCNCc1cccc(-c2ccc(-c3nc4ccccc4[nH]3)s2)c1

[out]
1: inactive; 2: inactive; 3: inactive; 4: inactive; 5: inactive; 6: inactive; 7: inactive; 8: inactive
